- TARGET_SYSTEM: hTRPC5 (Homo sapiens, UniProt Q9UL62)
- Construct: expressed in transfected cells; host or cells: HEK293 TREx cells with inducible TRPC5 expression
- Sequence (Q9UL62 whole entry): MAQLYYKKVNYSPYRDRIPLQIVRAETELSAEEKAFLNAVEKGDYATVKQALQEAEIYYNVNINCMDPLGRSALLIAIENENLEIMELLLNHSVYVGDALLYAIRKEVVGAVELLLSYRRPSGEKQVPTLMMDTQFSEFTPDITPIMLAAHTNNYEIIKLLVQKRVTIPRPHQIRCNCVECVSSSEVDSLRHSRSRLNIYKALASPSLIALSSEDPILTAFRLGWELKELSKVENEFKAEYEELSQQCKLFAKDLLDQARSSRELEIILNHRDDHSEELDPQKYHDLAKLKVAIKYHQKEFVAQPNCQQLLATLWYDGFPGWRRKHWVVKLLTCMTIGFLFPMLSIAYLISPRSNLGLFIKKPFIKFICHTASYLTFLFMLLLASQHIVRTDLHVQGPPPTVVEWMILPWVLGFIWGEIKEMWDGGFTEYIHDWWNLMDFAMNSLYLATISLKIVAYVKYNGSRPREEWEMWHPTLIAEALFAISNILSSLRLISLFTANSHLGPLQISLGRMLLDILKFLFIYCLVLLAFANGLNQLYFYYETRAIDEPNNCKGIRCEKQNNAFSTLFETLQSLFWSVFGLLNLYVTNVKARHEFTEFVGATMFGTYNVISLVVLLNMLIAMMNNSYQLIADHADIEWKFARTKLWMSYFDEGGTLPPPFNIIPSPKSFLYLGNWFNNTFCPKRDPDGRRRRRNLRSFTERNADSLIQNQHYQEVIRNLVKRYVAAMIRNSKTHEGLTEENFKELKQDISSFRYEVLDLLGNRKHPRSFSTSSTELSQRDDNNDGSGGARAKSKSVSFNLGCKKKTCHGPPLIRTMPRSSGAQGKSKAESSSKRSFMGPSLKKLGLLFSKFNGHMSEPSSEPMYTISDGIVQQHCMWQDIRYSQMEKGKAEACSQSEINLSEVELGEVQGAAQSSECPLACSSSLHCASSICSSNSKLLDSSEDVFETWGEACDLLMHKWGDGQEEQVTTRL
- MEASUREMENT_NOTES: Whole-cell patch clamp, block of LaCl3-activated TRPC5 inward current
- Format: cell-based
- APPLIED_CONDITIONS: TRPC5-expressing HEK293 TREx cells, 80 μM LaCl3, inward current, IC50 estimated from 5 μM and 500 nM, read-out: hTRPC5 Patch La3+ Inwd (nM) (All Batches)
A collection of molecules and their measured IC50

- MOLECULE: "Cn1c(=O)c2c(nc(Oc3cccc(OC(F)(F)F)c3)n2Cc2ccc3ccccc3c2)n(C)c1=O [Compound 191]"
  TARGET_SYSTEM: "hTRPC5 (Homo sapiens, UniProt Q9UL62)"
  IC50: "< 100 nM"
- MOLECULE: "CCOC(=O)CC(C)c1nc2c(c(=O)n(C)c(=O)n2C)n1Cc1cccc(Br)c1 (stereo not shown) [Compound 86]"
  TARGET_SYSTEM: "hTRPC5 (Homo sapiens, UniProt Q9UL62)"
  IC50: "100 to 500 nM"
- MOLECULE: "Cn1c(=O)c2c(nc(SCC#N)n2Cc2cccc(Br)c2)n(C)c1=O [Compound 7]"
  TARGET_SYSTEM: "hTRPC5 (Homo sapiens, UniProt Q9UL62)"
  IC50: "2000 to 10000 nM"
- MOLECULE: "CCCOCCc1nc2c(c(=O)n(C)c(=O)n2C)n1Cc1cccc(Br)c1 [Compound 42]"
  TARGET_SYSTEM: "hTRPC5 (Homo sapiens, UniProt Q9UL62)"
  IC50: "1000 to 2000 nM"
